Below: a set of entries, each annotated with reported pIC50.
# target: Prostaglandin G/H synthase 1 (Ovis aries, UniProt P05979)
# Sequence (P05979 whole entry): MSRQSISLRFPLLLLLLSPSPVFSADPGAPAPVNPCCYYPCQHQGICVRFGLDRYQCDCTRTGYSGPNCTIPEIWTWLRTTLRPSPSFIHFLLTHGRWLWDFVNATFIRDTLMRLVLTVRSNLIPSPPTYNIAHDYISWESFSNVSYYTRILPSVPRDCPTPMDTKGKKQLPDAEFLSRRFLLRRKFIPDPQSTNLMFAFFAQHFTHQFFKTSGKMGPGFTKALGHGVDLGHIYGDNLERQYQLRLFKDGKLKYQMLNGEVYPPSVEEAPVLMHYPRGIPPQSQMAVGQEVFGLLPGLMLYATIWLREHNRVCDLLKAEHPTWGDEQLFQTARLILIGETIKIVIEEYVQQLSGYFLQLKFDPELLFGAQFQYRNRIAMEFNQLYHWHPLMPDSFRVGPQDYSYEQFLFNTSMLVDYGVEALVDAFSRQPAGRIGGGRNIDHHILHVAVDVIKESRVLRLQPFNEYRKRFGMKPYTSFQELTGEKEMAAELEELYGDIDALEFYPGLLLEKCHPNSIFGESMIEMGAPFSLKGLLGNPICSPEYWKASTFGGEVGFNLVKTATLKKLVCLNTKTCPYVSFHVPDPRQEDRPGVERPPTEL
# procedure.details: […] inhibition of ram seminal vesicle Prostaglandin G/H synthase 1 activity by determining PGE-2 by RIA
pIC50: −log10 of the molar value.

>  <compound.structure.string>
Nc1nc(N)c(F)c(-c2nc(-c3ccncc3)c(-c3cc4ccccc4o3)[nH]2)c1F

>  <relation.qualifier>
=

>  <pIC50>
4.00

$$$$
>  <compound.structure.string>
Nc1nc(N)c(F)c(-c2cc(-c3ccncc3)c(-c3ccc(F)cc3)[nH]2)c1F

>  <relation.qualifier>
=

>  <pIC50>
5.20

$$$$
>  <compound.structure.string>
Nc1nc(F)c(F)c(-c2nc(-c3ccncc3)c(-c3ccc(F)cc3)[nH]2)c1F

>  <relation.qualifier>
=

>  <pIC50>
4.00

$$$$
>  <compound.structure.string>
Nc1nc(N)c(F)c(-c2nc(-c3ccc(F)cc3)c(-c3ccncc3)o2)c1F

>  <relation.qualifier>
=

>  <pIC50>
4.00

$$$$
>  <compound.structure.string>
Fc1ccc(-c2[nH]c(-c3c(F)c(F)nc(F)c3F)nc2-c2ccncc2)cc1

>  <relation.qualifier>
<

>  <pIC50>
4.00

$$$$
